assay system: HA epitope-tagged full length pyk2 (FL.pyk2-HA) (Homo sapiens)
Sequence (Q14289 whole entry): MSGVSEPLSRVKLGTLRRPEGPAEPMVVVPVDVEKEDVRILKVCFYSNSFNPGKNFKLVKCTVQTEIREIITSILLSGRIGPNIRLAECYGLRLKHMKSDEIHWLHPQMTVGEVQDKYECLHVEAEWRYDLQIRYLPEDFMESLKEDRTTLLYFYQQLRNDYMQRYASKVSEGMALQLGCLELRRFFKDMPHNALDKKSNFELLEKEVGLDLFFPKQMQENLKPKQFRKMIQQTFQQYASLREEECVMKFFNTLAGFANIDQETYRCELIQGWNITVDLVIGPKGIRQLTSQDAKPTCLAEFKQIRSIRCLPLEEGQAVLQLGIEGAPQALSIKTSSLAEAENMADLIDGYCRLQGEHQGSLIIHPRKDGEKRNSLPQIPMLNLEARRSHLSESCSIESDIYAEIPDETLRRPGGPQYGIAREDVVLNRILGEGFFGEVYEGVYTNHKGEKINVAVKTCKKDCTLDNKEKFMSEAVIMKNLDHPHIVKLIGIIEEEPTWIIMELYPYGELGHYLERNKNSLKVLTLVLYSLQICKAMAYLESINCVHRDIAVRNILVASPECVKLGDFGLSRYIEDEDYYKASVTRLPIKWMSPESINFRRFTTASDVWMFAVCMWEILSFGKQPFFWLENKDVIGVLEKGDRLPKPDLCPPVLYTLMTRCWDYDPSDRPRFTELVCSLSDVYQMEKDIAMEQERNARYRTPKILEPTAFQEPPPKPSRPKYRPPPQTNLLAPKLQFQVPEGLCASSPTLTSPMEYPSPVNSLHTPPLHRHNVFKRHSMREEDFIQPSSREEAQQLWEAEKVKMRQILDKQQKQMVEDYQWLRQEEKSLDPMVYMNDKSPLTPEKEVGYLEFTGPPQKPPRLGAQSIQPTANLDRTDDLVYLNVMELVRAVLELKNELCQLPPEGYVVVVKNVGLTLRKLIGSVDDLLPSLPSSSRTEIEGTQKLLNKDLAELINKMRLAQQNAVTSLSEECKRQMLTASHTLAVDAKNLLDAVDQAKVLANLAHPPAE
Documented IC50 across a set of molecules

Recorded IC50, per entry:
Cc1[nH]c(/C=C2\C(=O)Nc3ccc(Br)cc32)c(C)c1C(=O)NCCN(C)C [Example 48] :: 90 nM
CCN(CC)CCNC(=O)c1c(C)[nH]c(/C=C2\C(=O)Nc3ccc(S(=O)(=O)Nc4cccc(Cl)c4)cc32)c1C [Example 88] :: 90 nM

Note: attention shifts to another entry.
Give reported IC50 for Cc1[nH]c(/C=C2\C(=O)Nc3ccc(S(=O)(=O)N(C)C)cc32)c(C)c1C(=O)NCCN1CCCC1 [Example 82] (HA epitope-tagged full length pyk2 (FL.pyk2-HA) (Homo sapiens))
310 nM

* * *

The compounds listed here are annotated with their pIC50.
assay system: HER-2 kinase (Homo sapiens)
Construct: Use EGFr/HER-2 chimera/3T3-C7 cell line for this assay; It is expressed in mouse NIH 3T3 clone C7 cells; P00533 (Epidermal growth factor receptor)
Sequence (P04626 720-987 limits assumed): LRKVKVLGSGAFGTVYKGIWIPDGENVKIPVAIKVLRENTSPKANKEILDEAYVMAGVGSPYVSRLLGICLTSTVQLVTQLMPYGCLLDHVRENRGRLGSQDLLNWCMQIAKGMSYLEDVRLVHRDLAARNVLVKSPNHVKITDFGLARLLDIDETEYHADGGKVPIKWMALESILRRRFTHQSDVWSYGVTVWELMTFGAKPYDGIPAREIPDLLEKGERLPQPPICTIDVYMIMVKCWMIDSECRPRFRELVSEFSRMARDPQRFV
procedure details: Cellular HER-2 kinase assay
conditions used: read-out: Her2 Kinase IC50
Please note pIC50 is a logarithmic value: minus log10 of concentration in mol/L. Answer with that number alone.

# example entries with known answers
COc1ccc2c(c1)NC(=O)/C2=C\c1[nH]c(C(=O)NCCCN2CCCC2)c(C)c1C(=O)c1ccccc1 :: 5.00
Cc1[nH]c(/C=C2\C(=O)Nc3ccc(Br)cc32)c(C)c1C(=O)NCCN(C)C :: 5.10

Please turn your attention to the following entry.
State its pIC50: CCN(CC)CCNC(=O)c1[nH]c(/C=C2\C(=O)Nc3cc(-c4cccnc4)ccc32)c2c1CCCC2
5.10

* * *

assay system: HER-2 kinase (Homo sapiens)
Construct: Use EGFr/HER-2 chimera/3T3-C7 cell line for this assay; It is expressed in mouse NIH 3T3 clone C7 cells; P00533 (Epidermal growth factor receptor)
procedure details: Cellular HER-2 kinase assay
conditions used: read-out: Her2 Kinase IC50
endpoint: IC50

# example entries with known answers
CCN(CC)CCN(C)C(=O)c1ccc(/C=C2\C(=O)Nc3cc(-c4ccccc4)ccc32)[nH]1 :: > 100 µM
Cc1cc(C(=O)O)[nH]c1/C=C1\C(=O)Nc2ccc(Cl)cc21 :: > 100 µM

Could you now consider this next molecule?
Give recorded IC50. CCOC(=O)c1c(C)[nH]c(/C=C2\C(=O)Nc3ccc(Br)cc32)c1-c1ccccc1
> 100 µM

* * *

assay system: EGFR (Homo sapiens, UniProt P00533)
Construct: A431 cell lysate (SUGEN, Inc.); host or cells: A431
Sequence (P00533 25-1210): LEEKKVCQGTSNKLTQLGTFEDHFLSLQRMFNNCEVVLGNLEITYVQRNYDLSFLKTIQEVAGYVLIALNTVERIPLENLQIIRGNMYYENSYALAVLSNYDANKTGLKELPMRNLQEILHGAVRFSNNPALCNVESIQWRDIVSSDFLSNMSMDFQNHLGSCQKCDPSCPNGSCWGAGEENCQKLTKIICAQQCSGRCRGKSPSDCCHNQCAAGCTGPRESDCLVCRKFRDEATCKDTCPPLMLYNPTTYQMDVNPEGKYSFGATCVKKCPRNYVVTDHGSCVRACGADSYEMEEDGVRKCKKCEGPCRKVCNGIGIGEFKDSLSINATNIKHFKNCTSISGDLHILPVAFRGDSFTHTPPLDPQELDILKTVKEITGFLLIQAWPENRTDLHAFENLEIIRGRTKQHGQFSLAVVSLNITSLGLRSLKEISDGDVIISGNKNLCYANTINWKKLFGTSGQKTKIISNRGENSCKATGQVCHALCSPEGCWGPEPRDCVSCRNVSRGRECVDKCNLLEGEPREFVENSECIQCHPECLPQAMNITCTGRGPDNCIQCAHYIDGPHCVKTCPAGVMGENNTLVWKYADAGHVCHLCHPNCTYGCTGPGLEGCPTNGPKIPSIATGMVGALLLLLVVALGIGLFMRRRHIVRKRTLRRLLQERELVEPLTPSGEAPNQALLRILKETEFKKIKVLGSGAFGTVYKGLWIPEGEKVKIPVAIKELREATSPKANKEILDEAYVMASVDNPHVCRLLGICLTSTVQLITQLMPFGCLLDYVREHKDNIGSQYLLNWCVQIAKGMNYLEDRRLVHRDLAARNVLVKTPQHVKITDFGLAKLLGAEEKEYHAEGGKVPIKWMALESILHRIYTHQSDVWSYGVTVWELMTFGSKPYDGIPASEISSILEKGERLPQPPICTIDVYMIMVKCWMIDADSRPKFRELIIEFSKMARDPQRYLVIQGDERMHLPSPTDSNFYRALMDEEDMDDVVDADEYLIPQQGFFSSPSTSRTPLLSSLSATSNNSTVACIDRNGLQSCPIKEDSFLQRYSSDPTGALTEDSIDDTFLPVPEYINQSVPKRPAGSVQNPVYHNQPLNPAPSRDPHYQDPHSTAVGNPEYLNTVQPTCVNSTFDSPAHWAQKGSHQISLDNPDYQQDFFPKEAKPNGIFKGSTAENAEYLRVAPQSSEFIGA
procedure details: EGFR bioassay (bio EGF)
Format: biochemical
endpoint: pIC50
Reminder that pIC50 is minus the log10 of a molar concentration.

Given the compound Cc1[nH]c(/C=C2\C(=O)Nc3cc(-c4cccc(C(C)C)c4)ccc32)c(C)c1C(=O)NCCN1CCCC1 , write its reported pIC50.
4.56

Dear colleague, please send me the reported pIC50 for CCN(CC)CCCNC(=O)c1c(C)[nH]c(/C=C2\C(=O)Nc3ccc(Br)cc32)c1-c1ccccc1 when you can.
4.94

Quickly give me recorded pIC50 for Cc1[nH]c(/C=C2\C(=O)Nc3ccc(Br)cc32)c(-c2ccccc2)c1C(=O)NCCN1CCCC1
4.92

Specify measured pIC50 for CCN(CC)CCN(C)C(=O)c1ccc(/C=C2\C(=O)Nc3ccc(Br)cc32)[nH]1 .
4.03

Tell me pIC50 reported for COc1ccccc1-c1ccc2c(c1)NC(=O)/C2=C\c1[nH]c(C)c(C(=O)NCCN(C)C)c1C
4.62

Quote pIC50 reported for CC(C)c1[nH]c(/C=C2\C(=O)Nc3ccc(Br)cc32)c(-c2ccccc2)c1C(=O)NCCCN1CCN(C)CC1 please.
5.19

Specify pIC50 for CCN(CC)CCNC(=O)c1ccc(/C=C2\C(=O)Nc3ccc(Br)cc32)[nH]1 and stop.
4.29

Consider the compound Cc1[nH]c(/C=C2\C(=O)Nc3ccc(S(=O)(=O)Nc4cccnc4)cc32)c(C)c1C(=O)NCCN1CCCC1 and give its recorded pIC50.
4.17

Check the records and state pIC50 for COc1ccc2c(c1)NC(=O)/C2=C\c1[nH]c(C(=O)NCCCN2CCCC2)c(C)c1C(=O)c1ccccc1
4.46

Tell me pIC50 reported for CCN(CC)CCNC(=O)c1c(C)[nH]c(/C=C2\C(=O)Nc3ccc(S(=O)(=O)Nc4cccc(Cl)c4)cc32)c1C
5.63

Look up pIC50 of COc1ccc(-c2ccc3c(c2)NC(=O)/C3=C\c2[nH]c(C)c(C(=O)NCCN3CCCC3)c2C)c(OC)c1 and report it.
5.03

* * *

assay system: GST-Flk1 (Mus musculus, UniProt P35918)
Construct: GST-Flk1cd purified from sf9 recombinant baculovirus transformation
Sequence (P35918 784-1345 limits assumed): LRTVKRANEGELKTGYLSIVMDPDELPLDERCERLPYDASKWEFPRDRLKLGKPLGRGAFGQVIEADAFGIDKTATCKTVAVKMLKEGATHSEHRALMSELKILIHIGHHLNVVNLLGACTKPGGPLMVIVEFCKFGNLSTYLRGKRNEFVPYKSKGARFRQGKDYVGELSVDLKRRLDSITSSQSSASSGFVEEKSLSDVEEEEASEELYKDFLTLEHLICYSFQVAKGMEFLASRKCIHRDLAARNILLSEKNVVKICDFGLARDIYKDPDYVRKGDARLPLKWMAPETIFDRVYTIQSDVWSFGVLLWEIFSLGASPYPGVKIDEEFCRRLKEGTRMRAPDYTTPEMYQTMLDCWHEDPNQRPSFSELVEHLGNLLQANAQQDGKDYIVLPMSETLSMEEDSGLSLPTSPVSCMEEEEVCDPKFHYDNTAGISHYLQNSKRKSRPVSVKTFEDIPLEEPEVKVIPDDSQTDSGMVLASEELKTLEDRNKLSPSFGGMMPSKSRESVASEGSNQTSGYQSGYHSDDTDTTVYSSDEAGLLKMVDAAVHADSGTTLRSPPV
procedure details: GST-FLK-1 bioassay (bio flkGST)
The compounds listed here are annotated with their IC50.

Sample records with IC50:
COc1ccccc1-c1ccc2c(c1)NC(=O)/C2=C\c1[nH]c(C)c(C(=O)NCCN(C)C)c1-c1ccccc1 [Example 45] :: 1.71 µM
COc1ccc(-c2ccc3c(c2)NC(=O)/C3=C\c2[nH]c(C)c(C(=O)NCCN3CCCC3)c2C)c(OC)c1 [Example 78] :: 1.94 µM
Cc1c(C(=O)NCCCN2CCCC2)[nH]c(/C=C2\C(=O)Nc3cc(-c4ccccc4)ccc32)c1C(=O)c1ccccc1 [Example 25] :: 12.6 µM
CCN(CC)CCCNC(=O)c1c(C(C)C)[nH]c(/C=C2\C(=O)Nc3ccc(Br)cc32)c1C(C)C [Example 72] :: 6.06 µM
CCOC(=O)c1c(C)[nH]c(/C=C2\C(=O)Nc3ccc(Br)cc32)c1-c1ccccc1 [Example 46] :: 30.6 µM

Answer with the recorded IC50 for the compound listed here: CC(=O)c1c(/C=C2\C(=O)Nc3ccc(Br)cc32)[nH]c(C(=O)NCCN2CCCC2)c1C [Example 35]
> 20 µM

* * *

Reported pIC50 values, PDGFR-β (Homo sapiens, UniProt P09619).
Quick note: pIC50 values are minus log10 of concentrations in mol/L.

CC(=O)c1c(/C=C2\C(=O)Nc3ccc(Br)cc32)[nH]c(C(=O)NCCCO)c1C :: 5.23
Cc1[nH]c(/C=C2\C(=O)Nc3ccc(Br)cc32)c(-c2ccccc2)c1C(=O)NCCN1CCCC1 :: 6.92
CC(C)c1[nH]c(/C=C2\C(=O)Nc3ccc(Br)cc32)c(C(C)C)c1C(=O)NCCCN1CCCC1 :: 4.85
CCN(CC)CCCNC(=O)c1c(C(C)C)[nH]c(/C=C2\C(=O)Nc3ccc(Br)cc32)c1-c1ccccc1 :: 5.51
COc1ccc(-c2ccc3c(c2)NC(=O)/C3=C\c2[nH]c(C)c(C(=O)NCCN3CCCC3)c2C)c(OC)c1 :: 4.15

Turning now to a further compound:
Given CCN(CC)CCNC(=O)c1c(C(C)C)[nH]c(/C=C2\C(=O)Nc3ccc(Br)cc32)c1-c1ccccc1 , respond with its pIC50.
5.33

* * *

The following molecules are shown together with reported IC50 values.
assay system: EGFR (Homo sapiens)
Construct: A431 cell lysate (SUGEN, Inc.); host or cells: A431
procedure details: EGFR bioassay (bio EGF)
Assay type: biochemical

Reference set, count: 2
Cc1[nH]c(/C=C2\C(=O)Nc3ccc(-c4ccccc4)cc32)c(C)c1C(=O)NCCN1CCCC1 :: > 100 µM
CCOC(=O)c1c(C)[nH]c(/C=C2\C(=O)Nc3ccc(Br)cc32)c1-c1ccccc1 :: > 100 µM

We now examine a further molecule.
Give IC50 for the following molecule: CCN(CC)CCNC(=O)c1c(C)[nH]c(/C=C2\C(=O)Nc3ccc(-c4ccccc4)cc32)c1C
> 100 µM

* * *

assay system: GST-Flk1 (Mus musculus)
Construct: GST-Flk1cd purified from sf9 recombinant baculovirus transformation
procedure details: GST-FLK-1 bioassay (bio flkGST)
pIC50: −log10 of the molar value.
endpoint: pIC50

For the molecule Cc1[nH]c(/C=C2\C(=O)Nc3ccc(Br)cc32)c(-c2ccccc2)c1C(=O)NCCN(C)C [Example 44] , report pIC50.
> 7.30

// Input: CC(=O)c1c(/C=C2\C(=O)Nc3ccc(Br)cc32)[nH]c(C(=O)NCCN2CCOCC2)c1C [Example 34] . Output its pIC50 only.
< 4.30

Indicate its recorded pIC50; the molecule in question is Cc1c(C(=O)NCCCN2CCCC2)[nH]c(/C=C2\C(=O)Nc3ccccc32)c1C(=O)c1ccccc1 [Example 23]
< 4.70

* * *

The reader will find IC50 measurements below, all made with PDGFR-β (Homo sapiens).
Sequence (P09619 33-1106): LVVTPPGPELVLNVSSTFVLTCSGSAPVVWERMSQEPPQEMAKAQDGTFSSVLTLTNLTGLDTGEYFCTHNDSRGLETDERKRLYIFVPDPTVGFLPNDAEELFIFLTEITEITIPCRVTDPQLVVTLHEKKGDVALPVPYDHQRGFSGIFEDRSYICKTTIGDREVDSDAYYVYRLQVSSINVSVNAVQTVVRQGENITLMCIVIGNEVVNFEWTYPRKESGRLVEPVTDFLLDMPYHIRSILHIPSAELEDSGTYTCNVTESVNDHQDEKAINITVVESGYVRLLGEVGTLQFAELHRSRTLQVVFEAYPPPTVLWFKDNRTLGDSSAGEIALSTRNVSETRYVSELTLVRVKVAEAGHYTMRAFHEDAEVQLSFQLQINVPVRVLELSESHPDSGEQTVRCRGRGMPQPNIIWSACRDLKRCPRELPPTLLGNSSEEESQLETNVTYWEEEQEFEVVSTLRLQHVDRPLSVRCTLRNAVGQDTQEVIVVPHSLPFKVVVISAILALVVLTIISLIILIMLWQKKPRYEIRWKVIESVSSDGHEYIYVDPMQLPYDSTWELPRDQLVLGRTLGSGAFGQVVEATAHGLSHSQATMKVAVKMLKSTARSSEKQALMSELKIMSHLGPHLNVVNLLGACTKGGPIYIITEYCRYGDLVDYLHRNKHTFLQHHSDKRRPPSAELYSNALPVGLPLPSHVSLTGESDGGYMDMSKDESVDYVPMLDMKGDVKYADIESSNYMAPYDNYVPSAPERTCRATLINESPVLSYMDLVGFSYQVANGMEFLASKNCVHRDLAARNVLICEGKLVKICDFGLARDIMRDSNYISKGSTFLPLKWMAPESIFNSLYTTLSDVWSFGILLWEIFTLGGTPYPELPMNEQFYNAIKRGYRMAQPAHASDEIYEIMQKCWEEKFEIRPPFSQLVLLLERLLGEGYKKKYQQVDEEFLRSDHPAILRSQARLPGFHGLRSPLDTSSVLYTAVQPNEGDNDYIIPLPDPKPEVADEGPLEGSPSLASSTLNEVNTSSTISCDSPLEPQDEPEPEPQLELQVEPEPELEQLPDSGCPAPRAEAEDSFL

Cc1cc(C(=O)O)[nH]c1/C=C1\C(=O)N(C)c2ccccc21 [Example 2] :: > 100 µM

Name the value of IC50 reported for Cc1[nH]c(/C=C2\C(=O)Nc3cc(-c4cccnc4)ccc32)c(C)c1C(=O)NCCCN(C)C [Example 65] when tested on PDGFR-β (Homo sapiens).
< 0.05 µM

Look up PDGFR-β (Homo sapiens) data: IC50 of CC(=O)c1c(/C=C2\C(=O)Nc3ccc(Br)cc32)[nH]c(C(=O)NCCN2CCOCC2)c1C [Example 34] , then report it.
> 100 µM

GET IC50 where system = PDGFR-β (Homo sapiens) and item = Cc1[nH]c(/C=C2\C(=O)Nc3ccc(Br)cc32)c(C)c1C(=O)NCCCn1ccnc1 [Example 53]
< 0.78 µM

Lab note: record IC50 of Cc1[nH]c(/C=C2\C(=O)Nc3cc(-c4cccnc4)ccc32)c(C)c1C(=O)NCCN1CCCC1 [Example 64] tested on PDGFR-β (Homo sapiens).
< 0.78 µM

Give PDGFR-β (Homo sapiens) IC50 for the following compound: CC(=O)c1c(/C=C2\C(=O)Nc3ccc(Br)cc32)[nH]c(C(=O)NCCc2ccc(O)cc2)c1C [Example 36]
> 100 µM
